Assay: Mouse pharmacokinetics after oral administration
Assay type: in vivo
Settings: male, Swiss outbred, plasma, 20 mg/kg

Item smiles: Cc1nc(NC2Cc3cc(F)c(F)cc3C2)c2c(C)noc2n1
Readout units: h
Tmax: 1

###

Experiment: Mouse pharmacokinetics after oral administration
Assay type: in vivo
Details: male, Swiss outbred, plasma, 20 mg/kg
Readout label: Cmax (nM)

Item smiles: Cc1nc(NC2Cc3cc(F)c(F)cc3C2)c2c(C)noc2n1
Readout label: Cmax
Numeric result: 2100

###

# microsomal CLint annotations
Assay: In vitro metabolism in human liver microsomes
Format: in vitro ADME
Details: human, liver microsomes

Compound: Cc1nc(NC2CCc3ccc(Cl)cc3C2)c2c(C)noc2n1 (centres unmarked) [Compound 9]
microsomal CLint / µL/min/mg: 36

Compound: Cc1nc(Nc2ccc(S(F)(F)(F)(F)F)cc2)c2c(C(F)(F)F)noc2n1 [Compound 32]
microsomal CLint / µL/min/mg: 13

Compound: Cc1nc(Nc2ccc(C(F)(F)F)cc2)c2c(C(F)(F)F)noc2n1 [Compound 31]
microsomal CLint / µL/min/mg: 13

Compound: Cc1nc(NC2CCc3cc(Cl)ccc3C2)c2c(C)noc2n1 (centres unmarked) [Compound 10]
microsomal CLint / µL/min/mg: 23

Compound: Cc1nc(Nc2ccc(C(F)(F)F)cc2)c2c(C)noc2n1 [Compound 15]
microsomal CLint / µL/min/mg: 24

###

Assay: In vitro metabolism in human liver microsomes
Format: in vitro ADME
Conditions: human, liver microsomes

Molecule: Cc1noc2nc(C(F)(F)F)nc(Nc3ccc(S(F)(F)(F)(F)F)cc3)c12 [Compound 36]
microsomal CLint / µL/min/mg: 10

Molecule: Cc1nc(Nc2ccc(S(F)(F)(F)(F)F)cc2)c2c(C)noc2n1 [Compound 14]
microsomal CLint / µL/min/mg: 20

Molecule: Cc1nc(NC2Cc3cc(F)c(F)cc3C2)c2c(C)noc2n1 [Compound 13]
microsomal CLint / µL/min/mg: 17

Molecule: Cc1nc(NC2CCc3ccc(Br)cc3C2)c2c(C)noc2n1 (stereo not drawn) [Compound 11]
microsomal CLint / µL/min/mg: 32

Molecule: Cc1nc(Nc2ccc(C)c(Cl)c2)c2c(C)noc2n1 [Compound 3]
microsomal CLint / µL/min/mg: 6.2

Molecule: Cc1nc(Nc2ccc(C(F)(F)F)nc2)c2c(C)noc2n1 [Compound 16]
microsomal CLint / µL/min/mg: 8

Molecule: Cc1nc(NC2Cc3cc(F)c(F)cc3C2)c2c(C(F)(F)F)noc2n1 [Compound 30]
microsomal CLint / µL/min/mg: 26

Molecule: Cc1nc(NC2CCc3cc(Br)ccc3C2)c2c(C)noc2n1 (stereo not drawn) [Compound 12]
microsomal CLint / µL/min/mg: 19

Molecule: Cc1noc2nc(C(F)(F)F)nc(Nc3ccc(C(F)(F)F)cc3)c12 [Compound 35]
microsomal CLint / µL/min/mg: 18

###

Test: In vitro metabolism in mouse liver microsomes
Assay type: in vitro ADME
Details: mouse, liver microsomes
Could you mark each record Condition met if its microsomal CLint falls strictly under 100 µL/min/mg, and Condition not met if it equals or exceeds it?

Compound: Cc1nc(Nc2ccc(C(F)(F)F)cc2)c2c(C(F)(F)F)noc2n1
Label class: Condition met
--
Compound: Cc1nc(NC2CCc3ccc(Cl)cc3C2)c2c(C)noc2n1 (stereo not drawn)
Label class: Condition not met
--
Compound: Cc1noc2nc(C(F)(F)F)nc(Nc3ccc(C(F)(F)F)cc3)c12
Label class: Condition met
--
Compound: Cc1nc(Nc2ccc(S(F)(F)(F)(F)F)cc2)c2c(C)noc2n1
Label class: Condition met
--
Compound: Cc1nc(Nc2ccc(S(F)(F)(F)(F)F)cc2)c2c(C(F)(F)F)noc2n1
Label class: Condition met
--
Compound: Cc1nc(NC2CCc3ccc(Br)cc3C2)c2c(C)noc2n1 (stereo not drawn)
Label class: Condition not met
--
Compound: Cc1nc(NC2Cc3cc(F)c(F)cc3C2)c2c(C)noc2n1
Label class: Condition not met
--
Compound: Cc1nc(Nc2ccc(C(F)(F)F)nc2)c2c(C)noc2n1
Label class: Condition met
--
Compound: Cc1nc(Nc2ccc(C(F)(F)F)cc2)c2c(C)noc2n1
Label class: Condition met
